- ASSAY_TARGET: Gal(b1-4)GlcNAc(b1-3)Gal(b1-4)Glc
- PROTOCOL_DETAILS: glycan array binding signal (z-score within array); higher = stronger binding
- ASSAY_CONDITIONS: glycan notation: IUPAC condensed, linker removed
The sample as a whole holds a higher share of the strongest signals than the screen did.
# Lookup of reported glycan array binding signal (z-score) keyed by entry

MCL (Mus musculus), Q9Z2H6 (protein) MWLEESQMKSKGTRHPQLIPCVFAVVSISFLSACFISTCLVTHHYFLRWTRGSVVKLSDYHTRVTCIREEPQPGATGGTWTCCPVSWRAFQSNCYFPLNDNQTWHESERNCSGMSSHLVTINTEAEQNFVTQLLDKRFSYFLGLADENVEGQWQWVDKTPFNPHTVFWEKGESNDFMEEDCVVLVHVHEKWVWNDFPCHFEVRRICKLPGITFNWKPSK :: 0.482
TbCVNHOa (Tuber borchii), Q5MK11 (protein) MSYADSSRNAVLTNGGRTLRAECRNADGNWVTSELDLDTCIGNPNGFLGWGMQNFSHSSEDIKLEEGGRKLTCRPKTVDGGFRERQGIDLNRIQNVNGRLVFQ :: 1.38

Let me know recorded glycan array binding signal (z-score) for Gal 8 (Homo sapiens), O00214 (protein) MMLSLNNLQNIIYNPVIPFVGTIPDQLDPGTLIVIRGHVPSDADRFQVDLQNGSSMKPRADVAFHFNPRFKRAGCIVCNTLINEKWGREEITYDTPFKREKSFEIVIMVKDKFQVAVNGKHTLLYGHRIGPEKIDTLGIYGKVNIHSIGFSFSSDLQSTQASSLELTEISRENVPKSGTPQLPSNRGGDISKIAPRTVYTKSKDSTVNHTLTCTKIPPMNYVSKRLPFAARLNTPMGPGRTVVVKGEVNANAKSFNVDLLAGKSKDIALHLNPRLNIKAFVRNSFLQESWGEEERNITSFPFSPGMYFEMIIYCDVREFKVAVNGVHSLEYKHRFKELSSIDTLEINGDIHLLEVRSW , thanks.
2.43
